Entry source: patent US20110172153A1

Documented human PIR RG (% parent) across a set of binders
- Tested Target: T1, human parathyroid hormone receptor (PTHR) (human, UniProt Q03431 27-593)
- T1 construct: Assayed in membranes of HKRK-B7 cells or of transiently transfected COS-7 cells, or on intact HKRK-B7/HKRK-B64/COS-7 cells; RG = co-transfected with negative-dominant Galpha-s; R0 = receptor alone plus GTPgammaS; also called hPTHR; human PTH receptor
- T1 sequence: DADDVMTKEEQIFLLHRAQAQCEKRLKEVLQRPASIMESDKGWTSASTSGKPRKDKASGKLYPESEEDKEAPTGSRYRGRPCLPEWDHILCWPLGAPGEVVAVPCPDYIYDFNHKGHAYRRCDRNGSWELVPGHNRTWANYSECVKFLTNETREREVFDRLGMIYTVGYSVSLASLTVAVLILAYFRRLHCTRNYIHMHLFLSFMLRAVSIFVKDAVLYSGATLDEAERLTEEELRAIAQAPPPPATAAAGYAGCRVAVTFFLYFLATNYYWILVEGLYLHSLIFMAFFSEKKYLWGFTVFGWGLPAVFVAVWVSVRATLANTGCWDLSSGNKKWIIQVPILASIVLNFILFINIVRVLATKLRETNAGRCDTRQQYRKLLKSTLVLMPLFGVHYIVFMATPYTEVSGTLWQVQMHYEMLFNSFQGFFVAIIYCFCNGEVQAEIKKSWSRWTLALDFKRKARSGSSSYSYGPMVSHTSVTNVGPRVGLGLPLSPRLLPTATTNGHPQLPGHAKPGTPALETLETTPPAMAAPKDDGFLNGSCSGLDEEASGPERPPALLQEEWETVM
- Method: screen, binding to human PIR RG relative to parent PTHrP(1-28)NH; footnote not given
Ends that are not written are not given here.
Kindly answer with a numeric value in % parent, unit omitted.

In the examples that follow, each entry is paired with its recorded human PIR RG (% parent).
Binder	human PIR RG (% parent)
AVSEHQLLHDKGKSIQDARRRSFLHALI-NH2 [A18,26,S22-PTHrP(1-28)NH]	148
AVSEHQLLHDKGKSIQDERRRNFLHKLI-NH2 [E18,N22,K26-PTHrP(1-28)NH]	147
AVSEHQLLHDKGKSIQDARRRNFLHKLI-NH2 [A18,N22,K26-PTHrP(1-28)NH]	172
AVSEHQLLHDKGKSIQDARRRWFLHALI-NH2 [A18,26,W22-PTHrP(1-28)NH]	120

Please look up its human PIR RG (% parent): AVSEHQLLHDKGKSIQDERRRSFLHALI-NH2 [E18,S22,A26-PTHrP(1-28)NH] 132

Please look up its human PIR RG (% parent): AVSEHQLLHDKGKSIQDERRRLFLHKLI-NH2 [E18,L22,K26-PTHrP(1-28)NH] 152

Bench note: what human PIR RG (% parent) did AVSEHQLLHDKGKSIQDARRRLFLHKLI-NH2 [A18,L22,K26-PTHrP(1-28)NH] show? 177

What does the data say about its human PIR RG (% parent)? Entry: AVSEHQLLHDKGKSIQDARRRSFLHKLI-NH2 [A18,S22,K26-PTHrP(1-28)NH] 175
